- procedure_summary: Pretargeting: 125-I-hMN-14 × 734 bsAb, 24 h later 99m-Tc-IMP-192, biodistribution
- Format: in vivo, Nude mice
- settings: female, nude (Taconic NCRNU), mouse, total radioactivity; Lungs, 30 min post peptide
Where a SMILES comes first, the peptide text is derived from it. Side-chain parts run from the residue outwards. The star is where a group is joined. DTPA = O=C(O)CN(CCN(CC(=O)O)CC(=O)O)CCN(CC(=O)O)CC(=O)*; X1 = NC(=S)NN=CC(=O)*
quantity_kind: tissue uptake at 0.5 h
Field note: include the unit after the figure.

input: Specify reported tissue uptake at 0.5 h for the compound shown: CC(=O)N[C@@H](CCCCNC(=O)CN(CCN(CCN(CC(=O)O)CC(=O)O)CC(=O)O)CC(=O)O)C(=O)N[C@@H](Cc1ccc(O)cc1)C(=O)N[C@@H](CCCCNC(=O)CN(CCN(CCN(CC(=O)O)CC(=O)O)CC(=O)O)CC(=O)O)C(=O)N[C@@H](CCCCNC(=O)[C@H](CS)NC(=O)C=NNC(N)=S)C(N)=O [IMP 192] (Ac-K(DTPA)YK(DTPA)K([Cys-X1])-NH2)
output: 4.2 %ID/g

* * *

- procedure_summary: Pretargeting: 125-I-hMN-14 × 734 bsAb, 24 h later 99m-Tc-IMP-192, biodistribution
- Format: in vivo, Nude mice
- settings: female, NCRNU nude, mouse, total radioactivity; Spleen, 30 min post peptide
Where a SMILES comes first, the peptide text is derived from it. Side-chain parts run from the residue outwards. The star is where a group is joined. DTPA = O=C(O)CN(CCN(CC(=O)O)CC(=O)O)CCN(CC(=O)O)CC(=O)*; X1 = NC(=S)NN=CC(=O)*
quantity_kind: tissue uptake at 0.5 h (%ID/g)
Numbers only here, please. The scale is %ID/g.

input: Give reported tissue uptake at 0.5 h value for CC(=O)N[C@@H](CCCCNC(=O)CN(CCN(CCN(CC(=O)O)CC(=O)O)CC(=O)O)CC(=O)O)C(=O)N[C@@H](Cc1ccc(O)cc1)C(=O)N[C@@H](CCCCNC(=O)CN(CCN(CCN(CC(=O)O)CC(=O)O)CC(=O)O)CC(=O)O)C(=O)N[C@@H](CCCCNC(=O)[C@H](CS)NC(=O)C=NNC(N)=S)C(N)=O [IMP 192] (Ac-K(DTPA)YK(DTPA)K([Cys-X1])-NH2)
output: 1.2

* * *

- procedure_summary: Comparison of ^177Lu-IMP-241 and ^111In-IMP-241 pretargeting using hMN-14 × m679 F(ab′)2 bsMAb (24 h bsMAb clearance)
- Format: in vivo, nude mice
- settings: female, NCr nude, mouse, spleen, iv, total radioactivity, Spleen, 24 hour after peptide; read-out: Percent Injected Dose Per Gram
*1 amine or outer side, *2 acyl side, *3 side chain or, on linkers, in order; H or OH if unused. Where a SMILES comes first, the peptide text is derived from it. Side-chain parts run from the residue outwards. [ ]: non-standard residue; d: D form. The star is where a group is joined. DOTA = O=C(O)CN1CCN(CC(=O)O)CCN(CC(=O)*)CCN(CC(=O)O)CC1; NH(2-(imidazol-4-yl)ethyl) = c1ncc(CCN*)[nH]1; Suc = O=C(CCC(=O)[*:2])[*:1]
quantity_kind: tissue uptake at 24 h (%ID/g)
State just the number; it will be interpreted in %ID/g.

input: State, in one line, measured tissue uptake at 24 h of NC(=O)[C@H](CCCCNC(=O)CNC(=O)CCC(=O)NCCc1cnc[nH]1)NC(=O)[C@@H](Cc1ccc(O)cc1)NC(=O)[C@H](CCCCNC(=O)CNC(=O)CCC(=O)NCCc1cnc[nH]1)NC(=O)[C@H](Cc1ccccc1)NC(=O)CN1CCN(CC(=O)O)CCN(CC(=O)O)CCN(CC(=O)O)CC1 [^177Lu-IMP-241, metal not drawn] ({DOTA}-FK([Gly-Suc-NH(2-(imidazol-4-yl)ethyl)])[dY]K([Gly-Suc-NH(2-(imidazol-4-yl)ethyl)])-NH2)
output: 0.29
